- experimental_system: T1, human IgE (human, UniProt P01854 1-428)
- T1 construct: written under the same molecule; also called IgE (Abcam ab65866); soluble IgE
- T1 sequence (P01854 other isoform, or with tags, fused parts or gaps limits assumed, form in doubt): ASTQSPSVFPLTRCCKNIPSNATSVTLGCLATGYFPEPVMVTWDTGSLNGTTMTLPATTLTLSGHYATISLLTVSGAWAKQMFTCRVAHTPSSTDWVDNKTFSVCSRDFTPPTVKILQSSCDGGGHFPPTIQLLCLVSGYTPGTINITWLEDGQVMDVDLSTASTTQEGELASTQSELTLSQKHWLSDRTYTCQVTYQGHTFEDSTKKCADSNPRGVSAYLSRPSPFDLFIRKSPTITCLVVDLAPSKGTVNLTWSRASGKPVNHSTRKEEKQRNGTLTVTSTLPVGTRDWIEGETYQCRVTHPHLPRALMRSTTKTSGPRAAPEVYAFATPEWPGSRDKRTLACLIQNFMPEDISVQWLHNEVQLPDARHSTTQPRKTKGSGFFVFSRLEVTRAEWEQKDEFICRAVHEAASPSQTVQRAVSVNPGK
- method: ELISA, clone lysate on IgE-coated plate
measure_name: R1 Screening OD450

binder | value_reported
8G10 (VHH, also called hzB10v40 VHH, CDR1 site 8 N to S) VHH: EVQLLESGGGEVQPGGSLRLSCVASGLTFSSYSMGWLRQAPGKEREFVGLSGSSSTSTYYAESVKGRFTISRDNAKNTVYLQMTSLRAEDTAVYYCAARRLLSTYWSDRSWDFWGQGTLVTVEP | 0.917
8H11 (VHH, also called hzB10v40 VHH, CDR1 site 8 N to R) VHH: EVQLLESGGGEVQPGGSLRLSCVASGLTFSSYRMGWLRQAPGKEREFVGLSGSSSTSTYYAESVKGRFTISRDNAKNTVYLQMTSLRAEDTAVYYCAARRLLSTYWSDRSWDFWGQGTLVTVEP | 0.97
